This section presents binders with their documented SPOT peptide array binding signal intensity values.
- TARGET_ENTITY: ScLsb1
- ASSAY_PROTOCOL: SPOT peptide array binding signal intensity (averaged, normalized) (arbitrary units (background-subtracted, floor 0; scale differs between SH3 domains)); higher = stronger binding of the SH3 domain to the peptide
EXPERIMENTAL_READOUT: SPOT peptide array binding signal intensity

1. RVRKTHVPASKRPSG
4.5
2. KDKSRPPRPPPKPLH
121
3. PPIPNAPLSPAPAVP
2.5
4. EQEEIAPSLPSRNSI
127
5. LKQRFFLMFPKSIIW
1
6. QGYPRQPQRPQRYHP
9.5
7. RRSKSLPITPKSIFN
2.5
8. AAHKTKPSIPPKKVE
0.25
9. RLPAPPPPPRRGPAP
27.2
10. RVTRKRPREPKSTND
5.25
11. RKRRTHLRLPLIRSN
0.25
